- Assayed System: T1, N-terminal fragment of human cardiac troponin T (HcTnT-N69) (human)
- T1 construct: Recombinantly produced and purified; immobilised on microtiter plates in the ELISA; also the immunogen; also called N69 peptide; isolated (free, cleaved) HcTnT-N69 peptide
- T1 peptide: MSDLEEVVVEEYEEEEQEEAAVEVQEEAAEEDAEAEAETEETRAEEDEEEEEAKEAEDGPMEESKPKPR
- Procedure Details: indirect ELISA titration, antigen immobilised on plate
- Experimental: Purified HcTnT-N69 (also called N69) having the amino acid sequences shown in SEQ ID NO:1 or intact human cTnT antigen was immobilized on microtiter plates. After washing and blocking the plastic surface with 1% BSA and 0.05% Tween-20, the immobilized antigen was incubated with serial dilutions of the anti-N69 mAbs. […] A₄₁₅ₙₘ curve for each assay well was recorded by an automated microplate reader.
Measurement Kind: binding result

-- ask For mouse monoclonal antibody 2D11 (antibody, IgG1, V domains shown, Mouse hybridoma mAb, IgG1 kappa (VH1/VL2); also called mAb 2D11; Class II mAb) VH: GPELVKPGASVKISCKTSGYTFTENTIHWVKQSHGKSLEWVGGINPNNGGTNYNQKFKGRAALTVDKSSSTAYMELRSLTSEDSAVYYCARSWDWFAYWGQGTLVTVSA VL: LSLPVSLGDQASISCRSSQSLVHSNGNTYLHWYLQKPGQSPKLLVYKVSNRFSGVPDRFSGSGSGTDFTLKIIRVKAEDLGVYFCSQSTRIPFTFGSGTKLEMKR , write its binding result.
-- reply binds

-- ask Find the measured binding result of mouse monoclonal antibody 2C1 (antibody, V domains shown, Mouse hybridoma mAb, IgG1 kappa (VH1/VL1), separately isolated hybridoma with the same variable regions as 1D6; also called Class I mAb; anti-N69 mAb) VH: GPELVKPGASVKISCKTSGYTFTENTIHWVKQSHGKSLEWVGGINPNNGGTNYNQKFKGRAALTVDKSSSTAYMELRSLTSEDSAVYYCARSWDWFAYWGQGTLVTVSA VL: LSLPVSLGDQASISCRSSQSLVHSNGNTYLHWYLQKPGQSPKLLVYKVSNRFSGVPDRFSGSGSGTDFTLKIIRVEAEDLGVYFCSQSTRIPFTFGSGTKLEMKR and report it.
-- reply binds
